# Test system: SNB-75
# method notes: NCI tumour cell line growth inhibition, 48 h
Calls of active or inactive are those of the source. No stated cut-off is given here; in the data, active = GI50 up to about 1.1 µM and inactive = higher.
Reported GI50 values follow for various molecules

Problem: Which GI50 reading was recorded for the molecule "N/N=C(\Nc1ccccc1)SCc1ccccc1" ?
Solution: 41.7 µM (inactive)

Problem: May I ask what GI50 has been recorded for Cc1cc2c(cc1Cl)SC(c1ccccc1O)NS2(=O)=O (centres undefined) ?
Solution: > 100 µM (inactive)

Problem: Using the record for "CCC(=O)Nc1ccc(N2C(=O)/C(=C/c3ccc(O)c(OC)c3)N=C2c2ccccc2)cc1" , report its GI50.
Solution: > 100 µM (inactive)

Problem: Please give the measured GI50 for this molecule: COc1cc2cc(C(=O)N3CC(CCl)c4ccccc43)[nH]c2c(OC)c1OC (centres undefined)
Solution: > 92.5 µM (inactive)

Problem: Item "C#CCN(C(=O)C(F)(F)F)c1ccc(C(=O)c2ccc(N(CC#C)C(=O)C(F)(F)F)cc2)cc1" has what recorded GI50?
Solution: 43.4 µM (inactive)

Problem: Recorded GI50 of CCOC(=O)C1C(=O)CC(C)(O)C(C(=O)OCC)C1c1ccc(OC)cc1 (centres undefined) , please.
Solution: > 100 µM (inactive)

Problem: Which GI50 is reported for this molecule? "O=[N+]([O-])c1ccc(/C=N/C2CCCCC2)cc1"
Solution: > 100 µM (inactive)

Problem: Can you share its GI50? I mean this molecule: "Cc1cc(C)n(C(=O)CSc2nnc(SCC(=O)n3nc(C)cc3C)s2)n1"
Solution: 40 µM (inactive)

Problem: Consider the molecule shown here: "CCN(CC)CCn1nc(N)c2nc3ccccc3nc21" What is its recorded GI50?
Solution: 39.9 µM (inactive)

Problem: Given the entry "Oc1cc(C2OCCCO2)cc(O)c1O" , report its measured GI50.
Solution: > 100 µM (inactive)

Problem: What value of measured GI50 is listed for "Nc1c2ccccc2nc2c1ccc1ncccc12" ?
Solution: 22.3 µM (inactive)

Problem: Query: GI50; subject: "C=C1C(=O)C2=C[C@H]1C[C@H](O)C(=O)[C@]1(C)CCCC(C)(C)[C@H]1C[C@H]2O"
Solution: 5.58 µM (inactive)

Problem: What does the record list as GI50 for "COC(=O)c1ccccc1OCc1cc(=O)oc2ccc(C)cc12" ?
Solution: 16.2 µM (inactive)

Problem: Look up GI50: "CC(C)[C@H](NC(=O)[C@@H](O)[C@H](N)Cc1ccccc1)C(=O)N[C@@H](Cc1ccccc1)C(=O)O"
Solution: > 100 µM (inactive)

Problem: What value of GI50 has been reported for the following molecule? "Cc1ccc(S(=O)(=O)NC(=O)Nc2cc(Cl)c(S(N)(=O)=O)cc2S(N)(=O)=O)cc1"
Solution: > 100 µM (inactive)

* * *

# Test system: SK-MEL-5
# method notes: NCI tumour cell line growth inhibition, 48 h
Active and inactive are the calls of the source. No stated cut-off is given here; in the data, active = GI50 up to about 1.1 µM and inactive = higher.
observation type: GI50

Solved cases (3 shown):
{"compound": "O=[N+]([O-])c1ccc(C2c3c(O)nc(O)nc3Oc3nc(O)nc(O)c32)cc1", "GI50": "> 100 µM (inactive)"}
{"compound": "CCC[C@H](N[S+]([O-])c1ccc(C)cc1)C(C(=O)OCC)=C(c1ccccc1)c1ccccc1 (some centres undefined)", "GI50": "22.1 µM (inactive)"}
{"compound": "OC12c3ccccc3C1CCCCCC21OCCCO1 (centres undefined)", "GI50": "> 100 µM (inactive)"}

From here, focus on the item given below.
Problem: Entry "C[C@]12CC[C@@H]3c4cc(OCC(F)(F)F)c(O)cc4C(=O)C[C@H]3[C@@H]1CC[C@@H]2O" , system SK-MEL-5: what GI50 was measured?
Solution: 5.87 µM (inactive)

* * *

List of GI50 values.
# System: OVCAR-4
# method notes: NCI tumour cell line growth inhibition, 48 h
The source made the active and inactive calls. Rule as the data show it: active = GI50 up to about 1.1 µM and inactive = higher.

Here are 5 compounds together with their reported answers.
{"compound": "CC(C)[C@H](NC(=O)[C@@H](O)[C@H](N)Cc1ccccc1)C(=O)N[C@@H](Cc1ccccc1)C(=O)O", "test system": "OVCAR-4", "GI50": "> 100 µM (inactive)"}
{"compound": "Cc1c(O)c(OC2OC(CO)C(O)C(O)C2O)cc2c1CC[C@@H]1C2(C)C(=O)C[C@]2(C)[C@@H]([C@@](C)(O)C(O)/C=C/C(C)(C)O)[C@H](O)C[C@@]12C (stereo partly specified)", "test system": "OVCAR-4", "GI50": "> 100 µM (inactive)"}
{"compound": "CCOC(=O)c1ccc(OCc2nc3cc(C(F)(F)F)ccc3nc2-c2ccccc2)cc1", "test system": "OVCAR-4", "GI50": "> 100 µM (inactive)"}
{"compound": "COc1ccccc1/N=N/C(C(=O)c1ccccc1)C(=O)c1ccccc1", "test system": "OVCAR-4", "GI50": "9.53 µM (inactive)"}
{"compound": "CSc1ncc2c(n1)C(C#N)C1Sc3ccccc3N1C2=O (stereo unspecified)", "test system": "OVCAR-4", "GI50": "> 100 µM (inactive)"}

Problem: Recorded GI50 of "N/C(=N\O)NCCN1CCCCCCC1" , please.
Solution: > 100 µM (inactive)

* * *

# Test system: UACC-257
# method notes: NCI tumour cell line growth inhibition, 48 h
Active and inactive are the calls of the source. Rule as the data show it: active = GI50 up to about 1.1 µM and inactive = higher.
Parameter call: string, one of 1.0 (active), 0.0 (inactive)

Known results for compounds:
{"compound": "CC(C)c1ccc2c(c1)CCC1C(C)(CN)CCCC21C (stereo not given)", "test system": "UACC-257", "group label": 0.0}
{"compound": "O=P1(C(O)c2ccccc2)N(Cc2ccccc2)[C@@H]2CCCC[C@H]2N1Cc1ccccc1 (stereo not given in full)", "test system": "UACC-257", "group label": 0.0}
{"compound": "O=C(O)C(C(=O)O)P(=S)(S)c1ccccc1 (stereo not given)", "test system": "UACC-257", "group label": 0.0}
{"compound": "O=C(NCCNCCO)N/N=C/c1ccccc1", "test system": "UACC-257", "group label": 0.0}
{"compound": "COC(=O)c1ccc(C)cc1C1CN=NC12Cc1cc(C)ccc1C2=O (stereo not given)", "test system": "UACC-257", "group label": 0.0}
{"compound": "CC1=CC(=O)/C(=C/Nc2nc(-c3cccc([N+](=O)[O-])c3)cs2)C(=O)O1", "test system": "UACC-257", "group label": 0.0}

Problem: Would you mind telling me which call this test gave CCNC1C2(CCCCC2)NC(=O)C12CCCCC2 (stereo not given) ?
Solution: 0.0

Problem: Any idea what this test logged for "COc1ccc(-c2nc(N)nc(-c3cc(C)ccc3O)c2Cl)cc1" ?
Solution: 0.0

Problem: Given "O=C(c1ccco1)N(C(=S)OCc1ccccn1)c1ccccc1" , state the outcome it received in this test.
Solution: 0.0

Problem: In this assay, the call recorded for "C#CCN(C(=O)C(F)(F)F)c1ccc(C(=O)c2ccc(N(CC#C)C(=O)C(F)(F)F)cc2)cc1" was what?
Solution: 0.0

* * *

Listed here are compounds together with their documented GI50.
# System: HOP-92
# method notes: NCI tumour cell line growth inhibition, 48 h
Activity calls are given as the source filed them. Cut-off read from the data, not from the text of the source: active = GI50 up to about 1.1 µM and inactive = higher.

Recorded GI50, per entry:
{"compound": "COC(=O)C1C=CCC2CCCCC21N1CCCC1 (configuration not stated)", "result": "34 µM (inactive)"}
{"compound": "CCOC(=O)NC(=O)c1cn(-c2ccc(CCOC(=O)NCCCCCCNC(=O)OCCc3ccc(-n4c(=O)[nH]cc(C(=O)NC(=O)OCC)c4=O)cc3)cc2)c(=O)[nH]c1=O", "result": "> 72.4 µM (inactive)"}
{"compound": "CN1C(=O)N/C(=C\\c2ccc(S(=O)(=O)N/N=C/c3ccccc3)cc2)C1=O", "result": "17.1 µM (inactive)"}
{"compound": "COc1cc(C2S/C(=C/c3ccccc3)C(=O)N2c2ccc(Cl)cc2)cc(OC)c1OC (configuration not stated)", "result": "5.92 µM (inactive)"}
{"compound": "Cc1ccc(/N=N/c2c(O)c3ccccc3[nH]c2=O)c(S(=O)(=O)N(C)C)c1", "result": "> 100 µM (inactive)"}
{"compound": "Nc1ccc(C2(c3ccc(N)cc3)C3CC4CC(C3)CC2C4)cc1", "result": "12.4 µM (inactive)"}

Problem: Which GI50 is reported with HOP-92 for this entry: O=C(Nc1cc(Cl)c(Cl)cc1Cl)C(=O)C1C=CCS1(=O)=O (configuration not stated) ?
Solution: 26.8 µM (inactive)

Problem: I'm curious: which GI50 was measured for "CN1CCN2CCN(C)CCN(CC1)CC2" tested on HOP-92?
Solution: > 100 µM (inactive)

Problem: Report GI50 for C=CCOc1ccccc1C1(O)c2ccccc2C2=NCCCN21 (configuration not stated) tested on HOP-92.
Solution: 56.9 µM (inactive)
